Test system: Mycobacterium tuberculosis
procedureSummary: Cornell M. t heat shock assay; note: in the data most compounds retested in dose-response had high values
Assay type: functional, organism-based
Design: dose or concentration left out as unconfirmed
The whole screen tested about 69,000 compounds, of which about 950 (1.4%) showed an effect of 50% or more. Only a selection was taken, and strong results are over-represented in it overall.
Listing of entries alongside the reported Percent Effect.
State just the number; it will be interpreted in %.

Fc1ccc(CN2CC[C@H]3O[C@@H](COCC4CCOCC4)CC[C@H]32)cc1.O=C(O)C(F)(F)F	-16.61

Challenge: # input compound: "Cc1nccc(NCc2cncc3c2CCN(CCN(C)C)C3)n1" ; wanted: its Percent Effect
Response given: 3.393

Challenge: # input compound: "CO[C@H]1CN(CC2CC2)[C@@H]2CCCO[C@H]12.O=C(O)C(F)(F)F" ; wanted: its Percent Effect
Response given: 13.63
